TESTED TARGET: T1, Human ANGPTL4(26-406)-FLAG-His6-Avi (human, UniProt Q9BY76 24-406, biotin on the C-terminal Avi tag in the biotinylated preparations (immobilised form in SET, ELISA and Octet))
T1 sequence: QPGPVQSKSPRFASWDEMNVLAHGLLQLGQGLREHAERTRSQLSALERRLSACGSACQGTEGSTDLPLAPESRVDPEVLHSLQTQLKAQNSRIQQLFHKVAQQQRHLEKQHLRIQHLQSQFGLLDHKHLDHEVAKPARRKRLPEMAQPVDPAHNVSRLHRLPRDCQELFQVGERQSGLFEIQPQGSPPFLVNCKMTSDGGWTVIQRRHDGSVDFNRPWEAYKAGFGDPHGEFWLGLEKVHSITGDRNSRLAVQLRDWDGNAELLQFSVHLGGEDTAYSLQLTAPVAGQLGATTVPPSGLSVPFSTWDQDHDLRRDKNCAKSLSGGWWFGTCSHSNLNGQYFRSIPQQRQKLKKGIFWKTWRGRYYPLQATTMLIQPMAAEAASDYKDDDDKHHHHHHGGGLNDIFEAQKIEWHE
TEST NAME: cell-based or functional assay
MEASURE NAME: Reversal of human ANGPTL4 inhibition of human LPL EC50 (nM)

BINDER	REPORTED VALUE
MOR021823 (antibody, human IgG1, kappa, V domains shown, human IgG1) VH: QVQLLESGGGLVQPGGSLRLSCAASGFTFSSYYLHWVRQAPGKGLEWVSYISGDGSSTYYADSVKGRFTISRDNSKNTLYLQMNSLRAEDTAVYYCARERSYAHDHWGQGTLVTVSS VL: DIQMTQSPSSLSASVGDRVTITCRASQDIYIDLNWYQQKPGKAPKLLIYAASKLQSGVPSRFSGSGSGTDFTLTISSLQPEDFATYYCQQGYFLPQTFGQGTKVEIKR	1
